- experimental.system: muscle-type nicotinic acetylcholine receptor (nAChR) (Torpedo marmorata, UniProt P02711+Q6S3H8+Q6S3H9+Q6S3I0)
- Construct: native heteropentameric receptor purified from electroplaques, reconstituted in asolectin lipids and transplanted to Xenopus oocytes; with beta1, gamma and delta nAChR subunits (CHRNB1, CHRNG, CHRND) with two alpha1
- Sequence (P02711 25-461): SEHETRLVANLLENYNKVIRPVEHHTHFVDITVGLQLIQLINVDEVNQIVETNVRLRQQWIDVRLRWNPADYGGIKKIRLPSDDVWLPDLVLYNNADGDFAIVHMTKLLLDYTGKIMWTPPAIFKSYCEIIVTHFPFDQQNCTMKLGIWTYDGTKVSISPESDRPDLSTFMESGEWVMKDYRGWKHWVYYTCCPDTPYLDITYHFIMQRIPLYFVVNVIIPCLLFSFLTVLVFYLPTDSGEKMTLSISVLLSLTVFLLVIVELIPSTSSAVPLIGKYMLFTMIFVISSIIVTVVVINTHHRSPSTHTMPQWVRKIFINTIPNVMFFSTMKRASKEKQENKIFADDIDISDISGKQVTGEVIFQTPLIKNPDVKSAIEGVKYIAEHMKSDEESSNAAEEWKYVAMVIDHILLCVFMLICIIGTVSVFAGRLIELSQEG
- Sequence (Q6S3I0 25-493): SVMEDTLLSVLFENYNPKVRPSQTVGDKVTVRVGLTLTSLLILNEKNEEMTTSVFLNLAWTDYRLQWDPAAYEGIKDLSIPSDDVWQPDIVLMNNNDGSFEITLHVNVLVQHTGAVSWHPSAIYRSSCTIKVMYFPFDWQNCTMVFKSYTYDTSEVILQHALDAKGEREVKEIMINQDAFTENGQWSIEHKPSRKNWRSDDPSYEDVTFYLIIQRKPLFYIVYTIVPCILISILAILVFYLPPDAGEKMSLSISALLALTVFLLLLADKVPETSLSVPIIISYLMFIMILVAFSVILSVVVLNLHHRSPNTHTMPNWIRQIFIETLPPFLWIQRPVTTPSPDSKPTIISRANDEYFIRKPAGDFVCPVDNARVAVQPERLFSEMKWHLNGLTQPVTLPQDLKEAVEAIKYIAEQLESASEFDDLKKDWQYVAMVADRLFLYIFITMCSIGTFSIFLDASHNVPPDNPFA
- Sequence (Q6S3H9 18-505): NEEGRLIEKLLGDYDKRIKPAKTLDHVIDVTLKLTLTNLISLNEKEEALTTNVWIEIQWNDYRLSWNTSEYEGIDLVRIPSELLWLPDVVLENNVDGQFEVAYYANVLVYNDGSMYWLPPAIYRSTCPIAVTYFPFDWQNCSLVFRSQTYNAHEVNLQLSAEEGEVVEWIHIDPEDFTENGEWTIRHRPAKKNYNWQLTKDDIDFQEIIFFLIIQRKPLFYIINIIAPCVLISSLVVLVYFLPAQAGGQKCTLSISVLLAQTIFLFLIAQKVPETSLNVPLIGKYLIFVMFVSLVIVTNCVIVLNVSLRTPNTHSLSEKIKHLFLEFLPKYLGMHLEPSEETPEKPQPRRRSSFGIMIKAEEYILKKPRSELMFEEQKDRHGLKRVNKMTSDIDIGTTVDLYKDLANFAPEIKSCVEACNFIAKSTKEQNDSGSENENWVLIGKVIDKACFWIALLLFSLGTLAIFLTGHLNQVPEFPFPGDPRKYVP
- Sequence (Q6S3H8 22-522): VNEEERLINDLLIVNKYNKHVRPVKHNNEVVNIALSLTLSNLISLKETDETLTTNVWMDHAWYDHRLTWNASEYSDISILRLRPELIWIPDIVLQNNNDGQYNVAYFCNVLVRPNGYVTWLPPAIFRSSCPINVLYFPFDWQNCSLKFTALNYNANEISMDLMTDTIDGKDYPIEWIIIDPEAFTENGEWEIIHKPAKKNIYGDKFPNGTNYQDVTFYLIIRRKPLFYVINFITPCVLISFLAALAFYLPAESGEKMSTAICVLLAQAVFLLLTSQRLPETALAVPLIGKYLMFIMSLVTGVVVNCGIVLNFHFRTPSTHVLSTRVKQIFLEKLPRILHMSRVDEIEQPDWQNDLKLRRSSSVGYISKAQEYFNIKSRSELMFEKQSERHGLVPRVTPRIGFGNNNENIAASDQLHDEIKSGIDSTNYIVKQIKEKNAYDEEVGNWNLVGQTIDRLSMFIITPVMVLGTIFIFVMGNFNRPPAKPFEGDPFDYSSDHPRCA
- procedure.text: two-electrode voltage clamp, ACh concentration-current curve in Xenopus oocytes bearing transplanted nAChRs
pEC50: −log10 of the molar value.

{"molecule": "CC(=O)OCC[N+](C)(C)C [ACh, acetylcholine]", "pEC50": 4.43}
